Target: Human AMPK α2β2γ1 (Homo sapiens, UniProt O43741+P54646)
Construct: The full length cDNAs of human AMPK β2 (NM_005399.3) and human AMPK α2 (NM_006252.3); The full length cDNAs of human AMPK β2 (NM_005399.3); the full length cDNA of human AMPK γ1 (NM_002733.3) had been inserted into pET28b(+); 6xHis (N); made in house; host or cells: Escherichia coli BL21 CodonPlus (DE3)-RTL (AMPK); BL21 Star (DE3) (CaMKKβ)
Sequence (P54646 whole entry): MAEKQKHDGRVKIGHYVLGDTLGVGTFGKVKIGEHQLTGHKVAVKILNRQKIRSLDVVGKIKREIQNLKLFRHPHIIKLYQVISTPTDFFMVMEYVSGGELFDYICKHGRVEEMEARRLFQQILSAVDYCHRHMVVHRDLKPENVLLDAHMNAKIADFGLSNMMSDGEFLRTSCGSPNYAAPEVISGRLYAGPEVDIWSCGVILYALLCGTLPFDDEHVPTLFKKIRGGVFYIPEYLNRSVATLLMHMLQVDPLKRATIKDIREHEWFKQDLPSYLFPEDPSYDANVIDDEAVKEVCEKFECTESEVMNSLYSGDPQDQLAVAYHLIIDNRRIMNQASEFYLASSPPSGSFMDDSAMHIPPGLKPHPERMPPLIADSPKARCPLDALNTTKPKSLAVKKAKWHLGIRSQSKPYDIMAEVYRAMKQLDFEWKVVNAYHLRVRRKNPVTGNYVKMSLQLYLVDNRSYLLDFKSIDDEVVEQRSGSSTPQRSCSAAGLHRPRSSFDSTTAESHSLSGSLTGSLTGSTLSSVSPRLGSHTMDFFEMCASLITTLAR
Sequence (O43741 whole entry): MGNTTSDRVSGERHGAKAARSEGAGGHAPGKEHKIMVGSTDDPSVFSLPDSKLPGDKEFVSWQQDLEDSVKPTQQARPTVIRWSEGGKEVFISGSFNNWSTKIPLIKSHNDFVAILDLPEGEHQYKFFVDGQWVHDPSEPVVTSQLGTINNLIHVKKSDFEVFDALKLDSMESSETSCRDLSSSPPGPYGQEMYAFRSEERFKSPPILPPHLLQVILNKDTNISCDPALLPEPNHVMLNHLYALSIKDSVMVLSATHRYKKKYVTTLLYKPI
Sequence (P54619 whole entry partner): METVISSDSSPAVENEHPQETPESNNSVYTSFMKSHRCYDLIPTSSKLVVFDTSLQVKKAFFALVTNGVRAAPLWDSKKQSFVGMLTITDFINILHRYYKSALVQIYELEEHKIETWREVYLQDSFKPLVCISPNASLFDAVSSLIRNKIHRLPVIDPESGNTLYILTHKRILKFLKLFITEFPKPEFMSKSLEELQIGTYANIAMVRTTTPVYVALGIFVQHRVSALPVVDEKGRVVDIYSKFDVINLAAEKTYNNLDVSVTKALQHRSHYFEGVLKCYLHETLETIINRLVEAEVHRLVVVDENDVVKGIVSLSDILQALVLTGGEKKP
Assay: Test Example 2: evaluation of an activator for AMP-activated protein kinase (AMPK), human AMPK α2β2γ1 phosphorylated with CaMKK2, FL-Peptide 7 mobility shift
Assay type: biochemical
Conditions: human AMPK α2β2γ1, 0.2 mM ATP final, 25° C., 2 hours
Binned EC150 (compound concentration showing 150% relative to the control (100%)); ranges: bin 1 = under 4 nM, bin 2 = from 4 nM up to 20 nM, bin 3 = 20 nM and over

[[record]]
compound = "CS(=O)(=O)Nc1ccc(-c2ccc(-c3nc4cc(O[C@@H]5CO[C@H]6[C@@H]5OC[C@H]6O)[nH]c4cc3F)cc2)nc1 [Compound I-4-56]"
label_value = "bin 2"

[[record]]
compound = "O[C@@H]1CO[C@H]2[C@@H]1OC[C@H]2Oc1cc2nc(-c3ccc(C4CCCCO4)cc3)c(F)cc2[nH]1 (stereo partly drawn) [Compound I-2-57]"
label_value = "bin 2"

[[record]]
compound = "O=C(O)C1CC=C(c2ccc(-c3nc4c(Cl)c(O[C@@H]5CO[C@H](CO)C5)[nH]c4cc3Cl)cc2)CC1 (stereo partly drawn) [Compound I-1-55]"
label_value = "bin 3"

[[record]]
compound = "O[C@@H]1CO[C@H]2[C@@H]1OC[C@H]2Oc1cc2nc(-c3ccc(N4CCOCC4)cc3)c(C(F)(F)F)cc2[nH]1 [Compound I-2-2]"
label_value = "bin 3"

[[record]]
compound = "CS(=O)(=O)N1C2C=C(c3ccc(-c4nc5cc(O[C@@H]6CO[C@H]7[C@@H]6OC[C@H]7O)[nH]c5cc4F)cc3)CC1CC2 (stereo partly drawn) [Compound I-3-4]"
label_value = "bin 3"

[[record]]
compound = "COc1nc(N2CC[C@@H](O)C2)ccc1-c1nc2cc(O[C@@H]3CO[C@H]4[C@@H]3OC[C@H]4O)[nH]c2cc1F [Compound I-2-78]"
label_value = "bin 2"

[[record]]
compound = "N#Cc1cc2[nH]c(O[C@@H]3CO[C@H]4[C@@H]3OC[C@H]4O)cc2nc1-c1ccc(-c2ccccc2)cc1 [Compound I-2-45]"
label_value = "bin 2"

[[record]]
compound = "CN(C)CCOc1ccc(-c2ccc(-c3nc4c(C#N)c(O[C@@H]5CO[C@H]6[C@@H]5OC[C@H]6O)[nH]c4cc3Cl)cc2)cc1 [Compound I-1-37]"
label_value = "bin 2"

[[record]]
compound = "O=C(O)C1CC=C(c2ccc(-c3nc4c(Cl)c(O[C@@H]5CO[C@H]6[C@@H]5OC[C@H]6O)[nH]c4cc3Cl)cc2)CC1 (stereo partly drawn) [Compound I-1-20]"
label_value = "bin 1"

[[record]]
compound = "O=C(CO)N1CC=C(c2ccc(-c3nc4cc(O[C@@H]5CO[C@H]6[C@@H]5OC[C@H]6O)[nH]c4cc3F)cc2)CC1 [Compound I-1-50]"
label_value = "bin 1"


---

Target: Human AMPK α2β2γ1 (Homo sapiens, UniProt O43741+P54646)
Construct: The full length cDNAs of human AMPK β2 (NM_005399.3) and human AMPK α2 (NM_006252.3); The full length cDNAs of human AMPK β2 (NM_005399.3); the full length cDNA of human AMPK γ1 (NM_002733.3) had been inserted into pET28b(+); 6xHis (N); made in house; host or cells: Escherichia coli BL21 CodonPlus (DE3)-RTL (AMPK); BL21 Star (DE3) (CaMKKβ)
Assay: Test Example 2: evaluation of an activator for AMP-activated protein kinase (AMPK), human AMPK α2β2γ1 phosphorylated with CaMKK2, FL-Peptide 7 mobility shift
Assay type: biochemical
Details: human AMPK α2β2γ1, relative to control (100%); read-out: Emax (maximum rate of increase in activity within the measurement range)
Observation type: Emax (%)

[[record]]
compound = "O[C@@H]1CO[C@H]2[C@@H]1OC[C@H]2Oc1[nH]c2cc(Cl)c(-c3ccc(N4CCOCC4)cc3)nc2c1Cl [Compound I-1-11]"
observation_type = "Emax"
scale_unit = "%"
meas_value = 770

[[record]]
compound = "O[C@@H]1CO[C@H]2[C@@H]1OC[C@H]2Oc1[nH]c2cc(Cl)c(-c3c(F)cc(C4=CCOCC4)cc3F)nc2c1Cl [Compound I-1-15]"
observation_type = "Emax"
scale_unit = "%"
meas_value = 680

[[record]]
compound = "O=C(O)C1CC=C(c2ccc(-c3nc4cc(O[C@H]5CCOC5)[nH]c4cc3Cl)cc2)CC1 (stereo partly drawn) [Compound I-1-8]"
observation_type = "Emax"
scale_unit = "%"
meas_value = 338

[[record]]
compound = "O[C@@H]1CO[C@H]2[C@@H]1OC[C@H]2Oc1cc2nc(-c3ccc([C@H]4C[C@H](O)[C@H](O)CO4)cc3)c(F)cc2[nH]1 [Compound I-2-61-b]"
observation_type = "Emax"
scale_unit = "%"
meas_value = 442

[[record]]
compound = "COc1nc(N2CCCC2)ccc1-c1nc2cc(O[C@@H]3CO[C@H]4[C@@H]3OC[C@H]4O)[nH]c2cc1F [Compound I-3-27]"
observation_type = "Emax"
scale_unit = "%"
meas_value = 633

[[record]]
compound = "CS(C)(=O)=NC1CC=C(c2ccc(-c3nc4cc(O[C@@H]5CO[C@H]6[C@@H]5OC[C@H]6O)[nH]c4cc3F)cc2)CC1 (stereo partly drawn) [Compound I-4-17]"
observation_type = "Emax"
scale_unit = "%"
meas_value = 511

[[record]]
compound = "CN=S(C)(=O)c1ccc(-c2ccc(-c3nc4cc(O[C@@H]5CO[C@H]6[C@@H]5OC[C@H]6O)[nH]c4cc3F)cc2)cc1 (stereo partly drawn) [Compound I-4-1]"
observation_type = "Emax"
scale_unit = "%"
meas_value = 496

[[record]]
compound = "O[C@@H]1CO[C@H]2[C@@H]1OC[C@H]2Oc1cc2nc(-c3ccc4scnc4c3)c(F)cc2[nH]1 [Compound I-3-14]"
observation_type = "Emax"
scale_unit = "%"
meas_value = 430

[[record]]
compound = "O[C@@H]1CO[C@H]2[C@@H]1OC[C@H]2Oc1cc2nc(NC3CCc4cc(F)cc(F)c43)c(C(F)(F)F)cc2[nH]1 (stereo partly drawn) [Compound I-3-19]"
observation_type = "Emax"
scale_unit = "%"
meas_value = 543

[[record]]
compound = "O[C@@H]1CO[C@H]2[C@@H]1OC[C@H]2Oc1cc2nc(-c3ccc(N4CCOCC4)cc3)c(Cl)c(F)c2[nH]1 [Compound I-2-3]"
observation_type = "Emax"
scale_unit = "%"
meas_value = 508

[[record]]
compound = "O[C@@H]1CO[C@H]2[C@@H]1OC[C@H]2Oc1cc2nc(-c3ccc(N4CCOCC4)cc3F)c(Cl)cc2[nH]1 [Compound I-1-25]"
observation_type = "Emax"
scale_unit = "%"
meas_value = 768

[[record]]
compound = "COc1cccc(-c2ccc(-c3nc4c(C#N)c(O[C@@H]5CO[C@H]6[C@@H]5OC[C@H]6O)[nH]c4cc3Cl)cc2)c1O [Compound I-1-38]"
observation_type = "Emax"
scale_unit = "%"
meas_value = 841

[[record]]
compound = "N#Cc1c(O[C@@H]2CO[C@H]3[C@@H]2OC[C@H]3O)[nH]c2cc(Cl)c(-c3ccc(-c4ccccc4)cc3)nc12 [Compound I-1-7]"
observation_type = "Emax"
scale_unit = "%"
meas_value = 805

[[record]]
compound = "COC(=O)NC1CC=C(c2ccc(-c3nc4cc(O[C@@H]5CO[C@H]6[C@@H]5OC[C@H]6O)[nH]c4cc3F)cc2)CC1 (stereo partly drawn) [Compound I-4-58]"
observation_type = "Emax"
scale_unit = "%"
meas_value = 486

[[record]]
compound = "O[C@@H]1CO[C@H]2[C@@H]1OC[C@H]2Oc1cc2nc(-c3ccc(-c4ccsc4)cc3)c(F)cc2[nH]1 [Compound I-3-23]"
observation_type = "Emax"
scale_unit = "%"
meas_value = 510

[[record]]
compound = "CS(C)(=O)=Nc1ccc(-c2ccc(-c3nc4cc(O[C@@H]5CO[C@H]6[C@@H]5OC[C@H]6O)[nH]c4cc3F)cc2)nc1 [Compound I-3-12]"
observation_type = "Emax"
scale_unit = "%"
meas_value = 396

[[record]]
compound = "C/C(=C\\CNC(=O)CO)c1ccc(-c2nc3c(Cl)c(O[C@@H]4CO[C@H]5[C@@H]4OC[C@H]5O)[nH]c3cc2Cl)cc1 [Compound I-1-63]"
observation_type = "Emax"
scale_unit = "%"
meas_value = 791

[[record]]
compound = "O[C@@H]1CO[C@H]2[C@@H]1OC[C@H]2Oc1cc2nc(-c3ccc(C4CCCO4)cc3)c(F)cc2[nH]1 (stereo partly drawn) [Compound I-2-68]"
observation_type = "Emax"
scale_unit = "%"
meas_value = 382

[[record]]
compound = "COc1cc(F)c(-c2nc3cc(O[C@@H]4CO[C@H]5[C@@H]4OC[C@H]5O)[nH]c3cc2F)c(F)c1 [Compound I-3-28]"
observation_type = "Emax"
scale_unit = "%"
meas_value = 430

[[record]]
compound = "Cn1ccc2cc(-c3nc4c(C#N)c(O[C@@H]5CO[C@H]6[C@@H]5OC[C@H]6O)[nH]c4cc3Cl)ccc21 [Compound I-2-28]"
observation_type = "Emax"
scale_unit = "%"
meas_value = 446

[[record]]
compound = "COc1nc(N2CC[C@@H](O)C2)ccc1-c1nc2cc(O[C@@H]3CO[C@H]4[C@@H]3OC[C@H]4O)[nH]c2cc1F [Compound I-2-78]"
observation_type = "Emax"
scale_unit = "%"
meas_value = 490

[[record]]
compound = "O=C(O)C1CC=C(c2ccc(-c3nc4c(Cl)c(O[C@@H]5CO[C@H]6[C@@H]5OC[C@H]6O)[nH]c4cc3Cl)cc2)CC1 (stereo partly drawn) [Compound I-1-20]"
observation_type = "Emax"
scale_unit = "%"
meas_value = 746

[[record]]
compound = "N#Cc1cc2[nH]c(O[C@@H]3CO[C@H]4[C@@H]3OC[C@H]4O)cc2nc1NC1CCc2cc(F)cc(F)c21 (stereo partly drawn) [Compound I-3-17]"
observation_type = "Emax"
scale_unit = "%"
meas_value = 492

[[record]]
compound = "O[C@@H]1CO[C@H]2[C@@H]1OC[C@H]2Oc1[nH]c2cc(Cl)c(-c3ccc(C4(O)CCC4)cc3)nc2c1Cl [Compound I-1-62]"
observation_type = "Emax"
scale_unit = "%"
meas_value = 851

